Where do the numbers come from? From paper PMC7440915.

- Test system: vTreg53 (Fat) TCR
- TEST_DESCRIPTION: Surface plasmon resonance, pMHC/Fat TCR affinity
- Assay type: binding, murine
- COND: SPR, 25°C
Where no end group is shown, it is not given here.
PARAMETER_MEASURED: koff

TMYKNPRPMAATG [Fat1562] | slowest koff
TMYKNLRPWAATG [Fat2564] | slowest koff
LMFKGPHAVQAVG [Fat7] | fast kon and koff
TMYKNPRPVAATG [Fat15] | fast kon and koff
